I'd be grateful if you could share measured pest or weed control at 62.5 g/ha for these entries.
System: redroot pigweed (Amaranthus retroflexus)
Assay: Test G Pre-Emergence Protocol
Format: in vivo
Settings: Amaranthus retroflexus, pre-emergence, 312 h, 62.5 g ai/ha, evaluated after 13 days, 100=total damage to plant, 0=no damage to plant, read-out: Pigweed, Redroot damage rating
Give bare numbers, in %.

Example entries and their recorded answers appear below.
// CN1C[C@H](c2ccc(C(F)(F)F)cc2)[C@@H](C(=O)Nc2cnccc2C#N)C1=O (racemic) [Compound 1760] : pest or weed control at 62.5 g/ha value = 0

// COC(=O)c1cc([C@H]2CN(C)C(=O)[C@@H]2C(=O)Nc2cccc(F)c2F)ccc1C (racemic) [Compound 1683] : pest or weed control at 62.5 g/ha value = 20

// Cc1c(F)cccc1NC(=O)[C@@H]1C(=O)N(C)C[C@H]1c1ccc2nonc2c1 (racemic) [Compound 1818] : pest or weed control at 62.5 g/ha value = 0

// CN1C[C@H](c2ccc(Cl)cc2)[C@@H](C(=O)Nc2cnccc2C(F)(F)F)C1=O [Compound 1812] : pest or weed control at 62.5 g/ha value = 20

// CN1C[C@H](c2ccnc(C(C)(C)C)n2)[C@@H](C(=O)Nc2ccc(F)c(F)c2F)C1=O (racemic) [Compound 1770] : pest or weed control at 62.5 g/ha value = 0

Would you mind listing pest or weed control at 62.5 g/ha for each of the following compounds?
1. CN1C[C@H](c2ccc(C(F)(F)F)cc2)[C@@H](C(=O)Nc2cc(C#N)ccn2)C1=O (racemic) [Compound 1734]
2. CN1C[C@H](c2ccnc(C(C)(C)C)n2)[C@@H](C(=O)Nc2cccc(F)c2F)C1=O (racemic) [Compound 1769]
3. CN1C[C@H](c2ccc(Cl)cc2)[C@@H](C(=O)Nc2cccnc2F)C1=O [Compound 1810]
4. CN1CC(c2cc(F)c(Cl)c(F)c2)C(C(=O)Nc2cccc(F)c2F)C1=O (centres unmarked) [Compound 1703]
5. CCOc1cc([C@@H]2CN(C)C(=O)[C@H]2C(=O)Nc2cccc(F)c2C)ccc1F (racemic) [Compound 1767]
6. CC(C)OC(=O)c1cc([C@H]2CN(C)C(=O)[C@@H]2C(=O)Nc2ccccc2F)ccc1F (racemic) [Compound 1730]
7. CN1C[C@@H](c2ccc(CF)cc2)[C@H](C(=O)Nc2cccc(F)c2F)C1=O (racemic) [Compound 1822]
8. COCCOc1cc([C@@H]2CN(C)C(=O)[C@H]2C(=O)Nc2cccc(F)c2C)ccc1C (racemic) [Compound 1790]

Resp:
[0, 0, 40, 0, 0, 0, 60, 0]

// CN1C[C@H](c2cccc(C(F)(F)F)c2)[C@@H](C(=O)Nc2cc(O)ccc2F)C1=O (racemic) [Compound 1807] : pest or weed control at 62.5 g/ha value = 0

---

Test system: ragweed (common ragweed, Ambrosia elatior)
Assay: Test A preemergence
Assay type: in vivo
Conditions: Ambrosia artemisiifolia, pre-emergence, 240 h, 500 g ai/ha, preemergence; 0 to 100 scale where 0 is no effect and 100 is complete control; read-out: Ragweed plant response rating
measurement.label: pest or weed control at 500 g/ha (%)
Numbers only, in %.

Would you mind listing pest or weed control at 500 g/ha for each of the following compounds?
1. O=C1NC[C@H](c2cccc(C(F)(F)F)c2)C1C(=O)Nc1ccccc1CO (some centres unmarked)
2. COc1cc([C@H]2CN(C)C(=O)[C@@H]2C(=O)Nc2cccc(F)c2F)cc(OC)c1OC
3. O=C1NC[C@H](c2csc(C(F)F)c2)[C@H]1C(=O)Nc1cccc(F)c1F
4. CN1C[C@H](c2ccc(F)c(C#N)c2)[C@@H](C(=O)Nc2cccc(F)c2F)C1=O

Resp:
1: 0; 2: 0; 3: 70; 4: 70
